Item-by-item account of neutralization IC50
test_system: Env of HIV-1 strain X1254_c3 (HIV-1)
experiment_description: cell-based or functional assay

# binder, neutralization IC50 (µg/mL)
data = [
    ("γ46κ5 (antibody, V domains shown) VH: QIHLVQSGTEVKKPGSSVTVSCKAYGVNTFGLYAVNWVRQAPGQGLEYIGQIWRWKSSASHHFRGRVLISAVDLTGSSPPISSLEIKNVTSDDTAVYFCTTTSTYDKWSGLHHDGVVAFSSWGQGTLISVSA VL: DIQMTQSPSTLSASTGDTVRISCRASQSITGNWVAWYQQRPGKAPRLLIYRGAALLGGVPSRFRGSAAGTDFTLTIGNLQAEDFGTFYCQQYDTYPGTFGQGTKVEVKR", 1.79),
    ("γ59κ18 (antibody, V domains shown) VH: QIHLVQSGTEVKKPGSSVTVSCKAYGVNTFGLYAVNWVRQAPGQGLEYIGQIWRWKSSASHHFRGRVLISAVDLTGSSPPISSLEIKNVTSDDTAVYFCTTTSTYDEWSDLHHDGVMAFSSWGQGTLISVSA VL: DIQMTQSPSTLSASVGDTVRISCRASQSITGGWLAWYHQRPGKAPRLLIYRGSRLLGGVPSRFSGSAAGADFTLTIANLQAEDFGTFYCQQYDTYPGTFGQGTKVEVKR", 4.07),
    ("8ANC3484 (antibody, V domains shown) VH: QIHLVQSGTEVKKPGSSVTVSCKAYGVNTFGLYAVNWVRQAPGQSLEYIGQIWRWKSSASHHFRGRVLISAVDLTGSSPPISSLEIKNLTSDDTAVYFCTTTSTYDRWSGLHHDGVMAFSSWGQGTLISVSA VL: DIQMTQSPSTLSASIGDTVRISCRASQSITGNWVAWYQQRPGKAPRLLIYRGAALLGGVPSRFRGSAAGTDFTLTIGNLQAEDFGTFYCQQYDTYPGTFGQGTKVEVKR", 2.19),
]
